These data points were gathered from PubChem BioAssay.

- assay summary: OD615 S. cerevisiae growth inhibition, permissive medium, pilot counter-assay, permissive growth control for S. cerevisiae lifespan shortening project (AID 705)
- experimental setup: OD615, 24 h, at 10 µM, hits give high values
experimental endpoint: growth inhibition (%)
Only the number, expressed in %, is required.

Quickly give me recorded growth inhibition for CCOC(=O)N1CCN(C(=O)CCc2nc3sc4c(c3c(=O)[nH]2)CCCC4)CC1 -13.4

Quickly give me recorded growth inhibition for Cc1cc(C)n2nc(S(=O)(=O)NC3CCCCC3)nc2n1 -7.41

Quickly give me recorded growth inhibition for Cc1cccc(N(CC(=O)Nc2c(C)n(C)n(-c3ccccc3)c2=O)S(C)(=O)=O)c1C -16.3

Quickly give me recorded growth inhibition for CC(=O)Nc1ccc(-n2c(C)c(C(C)=O)c(C(C)=O)c2C)cc1 -2.51

Quickly give me recorded growth inhibition for CC1CCN(CC(O)COc2cccc(F)c2)CC1 (stereo not given) -14.2

Quickly give me recorded growth inhibition for O=C(NCCCn1ccnc1)c1cccc(S(=O)(=O)Nc2ccccc2F)c1 -13.9

Quickly give me recorded growth inhibition for CCOc1ccc(NC(=O)CSc2nc3c(c(=O)n2C)SC(C)C3)cc1 (stereo not given) -13.6

Quickly give me recorded growth inhibition for COc1ccc(C(=O)Nc2cc(=O)n(C)c(=O)n2C)cc1OC -0.79

Quickly give me recorded growth inhibition for O=C(Nc1nnc(CC(=O)N2CCCC2)s1)c1cnccn1 -3.58

Quickly give me recorded growth inhibition for CC1(C)Cc2c(sc3nc(SCC(=O)N4CCOCC4)nc(N)c23)CO1 -2.9

Quickly give me recorded growth inhibition for Cn1c(=O)oc2cc(S(=O)(=O)N3CCC(C(=O)N4CC=C(c5ccccc5)CC4)CC3)ccc21 -0.22

Quickly give me recorded growth inhibition for O=C(NCc1ccco1)c1ccc(CN2CCOCC2)cc1 -5.32

Quickly give me recorded growth inhibition for CCOC(=O)CCc1n[nH]c(=O)[nH]c1=O -3.33

Quickly give me recorded growth inhibition for Cn1c(Cn2c(=O)sc3ccccc32)nnc1SCc1ccccc1F -4.61

Quickly give me recorded growth inhibition for CCCC(=O)NCCCc1nc2ccccc2n1CC -7.75

Quickly give me recorded growth inhibition for COc1cc(OC)cc(-c2cc3nc(C)c(CCC(=O)O)c(C)n3n2)c1 0.5

Quickly give me recorded growth inhibition for O=C(Cn1cnc2c(nnn2-c2ccccc2)c1=O)N1CCCc2ccccc21 -10

Quickly give me recorded growth inhibition for Cc1nc2ccccc2c2oc(C(=O)N3CCc4ccccc43)cc12 -11.5

Quickly give me recorded growth inhibition for Cc1ccccc1-c1noc(-c2cccs2)n1 8.34

Quickly give me recorded growth inhibition for CCc1ccc(Nc2cc(C)nc3nc(C)nn23)cc1 -16.8

Quickly give me recorded growth inhibition for CCOC(=O)c1ccc(NC(=O)CN2C(=O)CSC2=O)cc1 -1.29

Quickly give me recorded growth inhibition for CCn1c(=O)c2cc(C(=O)N3CCN(C(=O)c4ccco4)CC3)sc2c2ccccc21 -1.96

Quickly give me recorded growth inhibition for COc1ccc(NC(=O)C2CCN(S(=O)(=O)c3cccc4cccnc34)CC2)cc1OC -4.2

Quickly give me recorded growth inhibition for Cc1[nH]c2ccc(-c3n[nH]c(=S)n3C)cc2c1C -4.45

Quickly give me recorded growth inhibition for CN(CC1CCCO1)S(=O)(=O)c1ccc(C(=O)Nc2nc(-c3ccccn3)cs2)cc1 (stereo not given) -14.2

Quickly give me recorded growth inhibition for Cc1nn(-c2ccccc2)c2sc(C(=O)OCN3C(=O)c4ccccc4C3=O)cc12 -8.01

Quickly give me recorded growth inhibition for CCOC(=O)N1CCN(C(=O)CN(C2CCCCC2)S(=O)(=O)c2ccc(C)cc2)CC1 -13.9

Quickly give me recorded growth inhibition for Cc1ccc(C(C)NC(=O)c2ccco2)cc1C (stereo not given) -7.97

Quickly give me recorded growth inhibition for Cc1nc(N2CCCCC2)c2sc(=S)n(C)c2n1 -7.24

Quickly give me recorded growth inhibition for Cc1ccccc1-c1nnc(SCC(=O)Nc2ccc(Cl)cc2)n1N -8.16

Quickly give me recorded growth inhibition for Cc1cccc(NC(=O)NCCN2C(=O)C3C4C=CC(C4)C3C2=O)c1 (stereo not given) -11.4

Quickly give me recorded growth inhibition for CCCCNC(=O)CS(=O)Cc1nc(-c2cccc(C)c2)oc1C (stereo not given) -13.2

Quickly give me recorded growth inhibition for CCOC(=O)N1CCN(C(=O)C2CC(c3ccc(F)cc3)=NO2)CC1 (stereo not given) -5.22

Quickly give me recorded growth inhibition for O=C(Nc1ccc(Cl)cc1)c1ccncc1 -11.5

Quickly give me recorded growth inhibition for NC(=O)CSc1nnc(Cn2c(=O)sc3ccccc32)n1CCc1ccccc1 1.14

Quickly give me recorded growth inhibition for COc1cccc(C2NC(CCSC)(C(=O)O)C3C(=O)N(C(C)C)C(=O)C23)c1O (stereo not given) -1.2

Quickly give me recorded growth inhibition for O=C1CC(N2CCN(C(c3ccccc3)c3ccccc3)CC2)C(=O)N1 (stereo not given) -8.31

Quickly give me recorded growth inhibition for CC(=O)N1CCC(N(CCCOC(C)C)C(=O)Nc2ccc(Cl)cc2)CC1 -2.75

Quickly give me recorded growth inhibition for O=C(O)CCCC(=O)Nc1ccc(Cl)c(Cl)c1 4.12

Quickly give me recorded growth inhibition for O=C(NCCN1C(=O)C2C3C=CC(C3)C2C1=O)Nc1ccccc1 (stereo not given) -8.45

Quickly give me recorded growth inhibition for Cc1ccc(N2C(=O)c3oc4ccccc4c(=O)c3C2c2cccnc2)nc1 (stereo not given) -12.7

Quickly give me recorded growth inhibition for CCOC(=O)N1CCN(C(=O)C(CC(C)C)NC(=O)C2CCCCC2)CC1 (stereo not given) -11.7

Quickly give me recorded growth inhibition for CC1=C(C(=O)OC(C)C)C(c2c[nH]c3ccccc23)n2ncnc2N1 (stereo not given) -5.16

Quickly give me recorded growth inhibition for CCOC(=O)c1[nH]c(C)c(C(=O)NCCN2CCOCC2)c1C -3.9

Quickly give me recorded growth inhibition for O=C(Nc1ccc(Cl)cc1)C1CC2CCCC(C1)C2=O (stereo not given) -7.49
